- SYSTEM_TESTED: RGS16 (Homo sapiens (Human))
- Sequence (O15492 whole entry, species assumed): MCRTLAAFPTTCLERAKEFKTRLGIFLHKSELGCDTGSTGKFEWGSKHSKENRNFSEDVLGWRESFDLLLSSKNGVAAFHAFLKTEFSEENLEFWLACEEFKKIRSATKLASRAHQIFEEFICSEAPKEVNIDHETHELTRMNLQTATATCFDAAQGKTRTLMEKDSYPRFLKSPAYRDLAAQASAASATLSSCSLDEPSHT
- ASSAY_TEXT: FCPIA: Gαo binding to RGS16
- SETTINGS: Table 7
READOUT_TYPE: IC50 (µM)
Write down the numeric answer in µM and omit the unit.

Using the record for `CCCCn1c(=O)sn(CC)c1=O` , state its measured IC50.
6

---

- SYSTEM_TESTED: RGS4 (Homo sapiens (Human))
- Sequence (P49798 whole entry, looked up): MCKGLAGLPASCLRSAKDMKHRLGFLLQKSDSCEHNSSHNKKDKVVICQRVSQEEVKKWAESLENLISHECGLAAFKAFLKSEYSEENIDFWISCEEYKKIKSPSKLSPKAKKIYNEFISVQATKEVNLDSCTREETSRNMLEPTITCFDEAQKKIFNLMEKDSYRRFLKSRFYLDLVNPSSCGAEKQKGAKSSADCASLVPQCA
- ASSAY_TEXT: FCPIA: Gαo binding to RGS4
READOUT_TYPE: Selectivity RGS4/ RGS8
Please respond with just the number, no unit label.

Reference set (3 entries):
Using the record for `Cc1ccc(-n2sc(=O)n(Cc3ccccc3)c2=O)cc1` , state its measured Selectivity RGS4/ RGS8.
519

Using the record for `O=c1sn(-c2ccc(Cl)cc2)c(=O)n1Cc1ccc(F)cc1` , state its measured Selectivity RGS4/ RGS8.
564

Using the record for `CCCCn1sc(=O)n(CC(C)C)c1=O` , state its measured Selectivity RGS4/ RGS8.
2540

More entries:
Using the record for `Cc1cccc(-n2sc(=O)n(Cc3ccccc3)c2=O)c1` , state its measured Selectivity RGS4/ RGS8.
558
